# Tested on: 697
# Assay protocol: selective drug sensitivity score (sDSS, relative to normal bone marrow) (sDSS (score)); higher = more potent and effective on the cell line relative to normal bone marrow cells;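 further: ALL cell lines in 384-well plates, five doses spanning 10,000-fold, each plate scaled between vehicle and 100 µmol/L benzalkonium chloride controls, sDSS an adapted area-under-curve metric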
# Run conditions: 72 h
Quantity kind: selective drug sensitivity score

- Molecule: "N#Cc1ccc2[nH]c(O)c(-c3ccc(CN4CCOCC4)cn3)c2c1 [AZD-1080] (top concentration 10000 nM)"
  Result value: 4.38
- Molecule: "CC(C)NC[C@@H](C(=O)N1CCN(c2ncnc3c2[C@H](C)C[C@H]3O)CC1)c1ccc(Cl)cc1 [Ipatasertib] (top concentration 10000 nM)"
  Result value: 2.9
- Molecule: "Cc1sc2c(c1C)C(c1ccc(Cl)cc1)=N[C@@H](CC(=O)OC(C)(C)C)c1nnc(C)n1-2 [JQ1] (top concentration 10000 nM)"
  Result value: 9.72
- Molecule: "CO[C@@H](C(=O)N1Cc2[nH]nc(NC(=O)c3ccc(N4CCN(C)CC4)cc3)c2C1)c1ccccc1 [Danusertib] (top concentration 10000 nM)"
  Result value: 21.4
- Molecule: "Nc1nc(NC2CC2)cc(-c2cccc(Cl)c2Cl)n1 [TH588] (top concentration 25000 nM)"
  Result value: 8.72
- Molecule: "COc1ccc(C[C@H](NC(=O)[C@H](C)NC(=O)CN2CCOCC2)C(=O)N[C@@H](Cc2ccccc2)C(=O)[C@@]2(C)CO2)cc1 [ONX-0914] (top concentration 10000 nM)"
  Result value: -5
- Molecule: "O=C(c1ccc(OCCN2CCCCC2)cc1)c1c(-c2ccc(O)cc2)sc2cc(O)ccc12 [Raloxifene] (top concentration 10000 nM)"
  Result value: -0.28
- Molecule: "CCCCCOC(=O)Nc1nc(=O)n([C@@H]2O[C@H](C)[C@@H](O)[C@H]2O)cc1F [Capecitabine] (top concentration 10000 nM)"
  Result value: -0.06

* * *

# Test system: HPB-ALL
# Assay protocol: selective drug sensitivity score (sDSS, relative to normal bone marrow) (sDSS (score)); higher = more potent and effective on the cell line relative to normal bone marrow cells
# Run conditions: 72 h
Quantity kind: selective drug sensitivity score

- Compound: "NCCNc1ccc(NCCN)c2c1C(=O)c1ccncc1C2=O [Pixantrone] (top concentration 10000 nM)"
  Result value: -2.66
- Compound: "COC(=O)C[C@](O)(CCCC(C)(C)O)C(=O)O[C@@H]1C(OC)=C[C@]23CCCN2CCc2cc4c(cc2[C@H]13)OCO4 [Omacetaxine] (top concentration 10000 nM)"
  Result value: -4.48
- Compound: "O=C(c1cccc(Cl)c1F)N1CCN(Cc2cccc(Nc3nccs3)n2)CC1 [MK-8745] (top concentration 10000 nM)"
  Result value: 7
- Compound: "CCOc1ccccc1-n1c(C(C)N2CCN(C(=O)COc3ccc(Cl)cc3)CC2)nc2ccccc2c1=O (stereo not drawn) [Erastin] (top concentration 10000 nM)"
  Result value: 6.54
- Compound: "COc1ccc(CCc2nc3cc(-c4c(C)noc4C)ccc3n2C[C@H](C)N2CCOCC2)cc1Cl [SGC-CBP30] (top concentration 25000 nM)"
  Result value: 1.88
- Compound: "CNc1nc(Nc2cn(C(C)(C)C#N)nc2C)ncc1C(F)(F)F [GNE-0877] (top concentration 1000 nM)"
  Result value: 0
- Compound: "Cc1cc(Nc2cc(CN3CCOCC3)c3nc(C)c(Cc4ccc(Cl)cc4F)n3n2)n[nH]1 [Gandotinib] (top concentration 10000 nM)"
  Result value: 1.58
- Compound: "CNC(=O)c1cc(COc2nnc(Nc3ccc(Cl)cc3)c3ccoc23)ccn1 [Telatinib] (top concentration 10000 nM)"
  Result value: 0.9

* * *

# Tested on: COG-LL-332h
# Assay protocol: selective drug sensitivity score (sDSS, relative to normal bone marrow) (sDSS (score)); higher = more potent and effective on the cell line relative to normal bone marrow cells
# Run conditions: 72 h
Measured selective drug sensitivity score, listed per entry for reference.

- Molecule: "O=C(/C=C/c1cccnc1)NCCCCC1CCN(C(=O)c2ccccc2)CC1 [Daporinad] (top concentration 1000 nM)"
  selective drug sensitivity score: 17
- Molecule: "Cc1c(N)nc([C@H](CC(N)=O)NC[C@H](N)C(N)=O)nc1C(=O)N[C@H](C(=O)N[C@H](C)[C@@H](O)[C@H](C)C(=O)N[C@H](C(=O)NCCc1nc(-c2nc(C(=O)NCCC[S+](C)C)cs2)cs1)[C@@H](C)O)[C@@H](O[C@@H]1O[C@@H](CO)[C@@H](O)[C@H](O)[C@@H]1O[C@H]1O[C@H](CO)[C@@H](O)[C@H](OC(N)=O)[C@@H]1O)c1c[nH]cn1 [Bleomycin] (top concentration 10000 nM)"
  selective drug sensitivity score: 8.04
- Molecule: "Cn1c(=O)n(-c2ccc(C(C)(C)C#N)cc2)c2c3cc(-c4cnc5ccccc5c4)ccc3ncc21 [Dactolisib] (top concentration 1000 nM)"
  selective drug sensitivity score: 5.96
- Molecule: "C[C@@H]1CN(CC(=O)Nc2ccc3c(c2)Cc2cccc(-c4cc(=O)cc(N5CCOCC5)o4)c2S3)C[C@H](C)O1 (top concentration 25000 nM)"
  selective drug sensitivity score: 2.02
- Molecule: "CCN(CC)CCCC(C)Nc1c2ccc(Cl)cc2nc2ccc(OC)cc12 (stereo not given) [Mepacrine] (top concentration 50000 nM)"
  selective drug sensitivity score: -0.4
- Molecule: "COc1cc2nccc(Oc3ccc(NC(=O)Nc4cc(C)on4)c(Cl)c3)c2cc1OC [Tivozanib] (top concentration 10000 nM)"
  selective drug sensitivity score: 12.2
- Molecule: "c1cc(CN2CCCNCCNCCCNCC2)ccc1CN1CCCNCCNCCCNCC1 [Plerixafor] (top concentration 10000 nM)"
  selective drug sensitivity score: 0
- Molecule: "N#Cc1ccc2[nH]c(O)c(-c3ccc(CN4CCOCC4)cn3)c2c1 [AZD-1080] (top concentration 10000 nM)"
  selective drug sensitivity score: -0.02
- Molecule: "O=C(NC[C@H](O)CN1CCc2ccccc2C1)c1cc(NC2COC2)ncn1 (top concentration 10000 nM)"
  selective drug sensitivity score: 1.54
- Molecule: "C[C@@H](C(=O)O)c1ccc(-c2ccccc2)c(F)c1 [Tarenflurbil] (top concentration 10000 nM)"
  selective drug sensitivity score: 4.14

* * *

# Tested on: ALL-PO
# Assay protocol: selective drug sensitivity score (sDSS, relative to normal bone marrow) (sDSS (score)); higher = more potent and effective on the cell line relative to normal bone marrow cells
# Run conditions: 72 h

- Compound: "CCOC(=O)CCNc1cc(N2CCc3ccccc3CC2)nc(-c2ccccn2)n1 [GSK-J4] (top concentration 100000 nM)"
  selective drug sensitivity score: -7.18
- Compound: "CC(C)C[C@H](NC(=O)[C@H](CCc1ccccc1)NC(=O)CN1CCOCC1)C(=O)N[C@@H](Cc1ccccc1)C(=O)N[C@@H](CC(C)C)C(=O)[C@@]1(C)CO1 [Carfilzomib] (top concentration 1000 nM)"
  selective drug sensitivity score: 4.76
- Compound: "COc1ccc2[nH]cc(/C=C3\\C(=O)Nc4ccc(NC(=O)CCN5CCCCC5)cc43)c2c1 (top concentration 50000 nM)"
  selective drug sensitivity score: 5.18
- Compound: "CN1CCN(c2ccc(C(=O)Nc3n[nH]c4ccc(Cc5cc(F)cc(F)c5)cc34)c(NC3CCOCC3)c2)CC1 [Entrectinib] (top concentration 1000 nM)"
  selective drug sensitivity score: 3.3
- Compound: "Cc1ccc(C(=O)Nc2ccc(CN3CCN(C)CC3)c(C(F)(F)F)c2)cc1C#Cc1cnc2cccnn12 [Ponatinib] (top concentration 1000 nM)"
  selective drug sensitivity score: 14.1
- Compound: "CO[C@@H](C)Cn1c(=O)n(C)c2cnc3ccc(-c4cncc(C(C)(C)O)c4)cc3c21 (top concentration 2500 nM)"
  selective drug sensitivity score: 4.88
- Compound: "Cn1cc(-c2cnn3c(N)c(Br)c([C@@H]4CCCNC4)nc23)cn1 [MK-8776] (top concentration 2500 nM)"
  selective drug sensitivity score: 4.44
- Compound: "Cc1cn(-c2cc(NC(=O)c3ccc(C)c(Nc4nccc(-c5cccnc5)n4)c3)cc(C(F)(F)F)c2)cn1 [Nilotinib] (top concentration 10000 nM)"
  selective drug sensitivity score: 4.6

* * *

# Test system: COG-LL-402h
# Assay protocol: selective drug sensitivity score (sDSS, relative to normal bone marrow) (sDSS (score)); higher = more potent and effective on the cell line relative to normal bone marrow cells
# Run conditions: 72 h
Quantity kind: selective drug sensitivity score

- Compound: "C=CCn1c(=O)c2cnc(Nc3ccc(N4CCN(C)CC4)cc3)nc2n1-c1cccc(C(C)(C)O)n1 [AZD1775] (top concentration 10000 nM)"
  Result value: 10.2
- Compound: "CC1=C(/C=C/C(C)=C/C=C/C(C)=C/C(=O)O)C(C)(C)CCC1 [Tretinoin] (top concentration 10000 nM)"
  Result value: -2.4
- Compound: "Nc1nc2[nH]cnc2c(=S)[nH]1 [Thioguanine] (top concentration 10000 nM)"
  Result value: 6.34
- Compound: "CO[C@@H](C)Cn1c(=O)n(C)c2cnc3ccc(-c4cncc(C(C)(C)O)c4)cc3c21 (top concentration 2500 nM)"
  Result value: 5.48
- Compound: "CC[C@H](NC(=O)[C@H](C)NC)C(=O)N1C[C@@H](O)C[C@H]1Cc1c(-c2[nH]c3cc(F)ccc3c2C[C@@H]2C[C@H](O)CN2C(=O)[C@H](CC)NC(=O)[C@H](C)NC)[nH]c2cc(F)ccc12 [Birinapant] (top concentration 1000 nM)"
  Result value: -5.1
- Compound: "Cc1ccc(C(=O)Nc2ccc(CN3CCN(C)CC3)c(C(F)(F)F)c2)cc1C#Cc1cnc2cccnn12 [Ponatinib] (top concentration 1000 nM)"
  Result value: 10.2
- Compound: "COc1cc(OC)c(/C=C/S(=O)(=O)Cc2ccc(OC)c(NCC(=O)O)c2)c(OC)c1 [Rigosertib] (top concentration 10000 nM)"
  Result value: 14.2
- Compound: "CC(=O)Nc1ccc(C(=O)Nc2ccccc2N)cc1 [Tacedinaline] (top concentration 1000 nM)"
  Result value: 0.38
- Compound: "CNc1nc(Nc2cn(C(C)(C)C#N)nc2C)ncc1C(F)(F)F [GNE-0877] (top concentration 1000 nM)"
  Result value: 0
- Compound: "CC(C)C[C@H](NC(=O)[C@H](CCc1ccccc1)NC(=O)CN1CCOCC1)C(=O)N[C@@H](Cc1ccccc1)C(=O)N[C@@H](CC(C)C)C(=O)[C@@]1(C)CO1 [Carfilzomib] (top concentration 1000 nM)"
  Result value: 2.86
- Compound: "Cc1ccc(NC(=O)c2ccc(CN3CCN(C)CC3)cc2)cc1Nc1nc(-c2cccnc2)cs1 [Masitinib] (top concentration 10000 nM)"
  Result value: -1.48
- Compound: "COC(=O)c1ccc2c(c1)[nH]c1ncnc(NCCCN3CCCCC3)c12 [UM729] (top concentration 10000 nM)"
  Result value: 6.34
- Compound: "CCNC(=O)c1noc(-c2cc(C(C)C)c(O)cc2O)c1-c1ccc(CN2CCOCC2)cc1 [Luminespib] (top concentration 1000 nM)"
  Result value: 4.1
- Compound: "CCOC(=O)CCNc1cc(N2CCc3ccccc3CC2)nc(-c2ccccn2)n1 [GSK-J4] (top concentration 100000 nM)"
  Result value: -7.88
- Compound: "Cc1cc(Nc2cc(CN3CCOCC3)c3nc(C)c(Cc4ccc(Cl)cc4F)n3n2)n[nH]1 [Gandotinib] (top concentration 10000 nM)"
  Result value: 5.28
- Compound: "COC(=O)C[C@](O)(CCCC(C)(C)O)C(=O)O[C@@H]1C(OC)=C[C@]23CCCN2CCc2cc4c(cc2[C@H]13)OCO4 [Omacetaxine] (top concentration 10000 nM)"
  Result value: 7.92

Provenance of the data: the supplement of paper PMC8967900
